- Tested on: Nakaseomyces glabratus
- measurementDescription: Antifungal activity against Candida glabrata ATCC2001 assessed as reduction in fungal growth measured after 24 hrs by CLSI protocol based method
- Type: functional
reportedMetric: MIC (µg/mL)
Kindly provide the numeric value in µg/mL only, without the unit symbol.

INSERT INTO measurements (smilesentry, reportedmetric, unitslabel, observedresult) VALUES
  ('CCCCCCCCCCC[C@@H](O[C@H]1OC[C@@H](O)[C@H](O)[C@H]1O)[C@H](O)[C@H](O)C[C@@H]1CC(=O)N[C@@H](CO)C(=O)N[C@H]([C@H](O)c2ccc(O)cc2)C(=O)N[C@H](CCN)C(=O)NCC(=O)N[C@@H](CC(=O)NC)C(=O)N[C@H](CO)C(=O)N[C@@H](CC(N)=O)C(=O)N1', 'MIC', 'µg/mL', 0.5);

Entry CCCCCCCCCCC[C@@H](O[C@H]1OC[C@@H](O)[C@H](O)[C@H]1O)[C@H](O)[C@H](O)C[C@@H]1CC(=O)N[C@@H](CO)C(=O)N[C@H]([C@H](O)c2ccc(O)cc2)C(=O)N[C@H](CCN)C(=O)NCC(=O)N[C@@H](CC(=O)NCC)C(=O)N[C@H](CO)C(=O)N[C@@H](CC(N)=O)C(=O)N1 has what MIC?
2

###

- System: Nakaseomyces glabratus
- measurementDescription: Antifungal activity against Candida glabrata ATCC2001 assessed as reduction in fungal growth measured after 24 hrs by CLSI protocol based method
- Format: functional
reportedMetric: MIC (µg/mL)
Kindly provide the numeric value in µg/mL only, without the unit symbol.

Worked cases, MIC given:
INSERT INTO assay_data (smilesentry, testedon, reportedmetric, observedresult) VALUES
  ('CCCCCCCCCCCCNC(=O)C[C@@H]1NC(=O)CNC(=O)[C@@H](CCN)NC(=O)[C@@H]([C@H](O)c2ccc(O)cc2)NC(=O)[C@H](CO)NC(=O)C[C@@H](C[C@@H](O)[C@@H](O)[C@@H](CCCCCCCCCCC)O[C@H]2OC[C@@H](O)[C@H](O)[C@H]2O)NC(=O)[C@H](CC(N)=O)NC(=O)[C@@H](CO)NC1=O', 'Nakaseomyces glabratus', 'MIC', 8),
  ('CCCCCCCCCCC[C@@H](O[C@H]1OC[C@@H](O)[C@H](O)[C@H]1O)[C@H](O)[C@H](O)C[C@@H]1CC(=O)N[C@@H](CO)C(=O)N[C@H]([C@H](O)c2ccc(O)cc2)C(=O)N[C@H](CCN)C(=O)NCC(=O)N[C@@H](CC(=O)NCCC)C(=O)N[C@H](CO)C(=O)N[C@@H]([C@H](O)C(N)=O)C(=O)N1', 'Nakaseomyces glabratus', 'MIC', 0.5),
  ('CCCCCCCCCCC[C@@H](O[C@H]1OC[C@@H](O)[C@H](O)[C@H]1O)[C@H](O)[C@H](O)C[C@@H]1CC(=O)N[C@@H](CO)C(=O)N[C@H]([C@H](O)c2ccc(O)cc2)C(=O)N[C@H](CCN)C(=O)NCC(=O)N[C@@H](CC(=O)O)C(=O)N[C@H](CO)C(=O)N[C@@H]([C@H](O)C(N)=O)C(=O)N1', 'Nakaseomyces glabratus', 'MIC', 2);

Now let's try a different one.
Entry C#CCCNC(=O)C[C@@H]1NC(=O)CNC(=O)[C@@H](CCN)NC(=O)[C@@H]([C@H](O)c2ccc(O)cc2)NC(=O)[C@H](CO)NC(=O)C[C@@H](C[C@@H](O)[C@@H](O)[C@@H](CCCCCCCCCCC)O[C@H]2OC[C@@H](O)[C@H](O)[C@H]2O)NC(=O)[C@H](CC(N)=O)NC(=O)[C@@H](CO)NC1=O has what MIC?
0.5
